Target: Cyp21 enzyme (Human HEK 293-Cyp21 stable transfected cells) (Homo sapiens, UniProt P08686)
Construct: expressed in transfected cells
Sequence (P08686 whole entry): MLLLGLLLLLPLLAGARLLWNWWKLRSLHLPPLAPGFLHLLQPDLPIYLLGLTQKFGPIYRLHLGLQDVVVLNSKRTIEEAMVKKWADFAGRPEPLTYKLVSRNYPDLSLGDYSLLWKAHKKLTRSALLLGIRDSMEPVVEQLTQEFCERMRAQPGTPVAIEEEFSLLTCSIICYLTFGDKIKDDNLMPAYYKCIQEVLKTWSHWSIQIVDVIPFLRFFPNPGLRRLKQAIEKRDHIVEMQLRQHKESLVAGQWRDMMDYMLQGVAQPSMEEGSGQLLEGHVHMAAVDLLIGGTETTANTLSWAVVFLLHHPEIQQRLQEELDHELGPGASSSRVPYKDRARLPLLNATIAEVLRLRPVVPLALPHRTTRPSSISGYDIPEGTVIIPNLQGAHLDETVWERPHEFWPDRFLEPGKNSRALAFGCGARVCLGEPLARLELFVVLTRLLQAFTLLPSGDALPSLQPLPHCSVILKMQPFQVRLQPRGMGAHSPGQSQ
Test: CYP21-HEK293 enzymatic assay (IC50) (Biological Example 11)
Type: cell-based
Conditions: HEK 293-Cyp21 stable transfected cells; read-out: CYP21-HEK293 enzymatic assay IC50 (Biological Example No. 11)
pIC50: −log10 of the molar value.
Reported pIC50 values for the following compounds.

| compound | tested-system | reported-measurement |
| --- | --- | --- |
| C[C@]12CCN(S(C)(=O)=O)CCC1CC[C@@H]1[C@@H]2CC[C@]2(C)C(n3ccnc3)=CC[C@@H]12 (stereo partly shown) | Cyp21 enzyme (Human HEK 293-Cyp21 stable transfected cells) (Homo sapiens, UniProt P08686) | < 6.00 |
| C[C@]12CCCN(S(C)(=O)=O)CC1CCC1C2CC[C@]2(C)C(n3cncc3C#N)=CCC12 (stereo partly shown) | Cyp21 enzyme (Human HEK 293-Cyp21 stable transfected cells) (Homo sapiens, UniProt P08686) | < 6.00 |
| CC1C[C@@H]2[C@H](CC[C@]3(C)C(c4cccnc4)CC[C@@H]23)[C@@]2(C)CCC(=O)C=C12 (stereo partly shown) | Cyp21 enzyme (Human HEK 293-Cyp21 stable transfected cells) (Homo sapiens, UniProt P08686) | > 8.00 |

Now look at this one.
Exam item: Consider the compound `C=C1C[C@H]2C3=CC=C(c4cncc(F)c4)[C@@]3(C)CC[C@@H]2[C@@]2(C)CCC(=O)C=C12` and give its measured pIC50.
Marked response: 7.00 to 8.00

====

In this section we review reported inhibition at 0.01 µM values for a set of molecules.
Biological target: CYP17 (human testicular microsome) (Homo sapiens)
Construct: using microsomal fraction from human testis (Celsis Cat #S00110) as the enzyme source; tissue Celsis S00110; host or cells: human testis microsomal fraction
Sequence (P05093 1-508): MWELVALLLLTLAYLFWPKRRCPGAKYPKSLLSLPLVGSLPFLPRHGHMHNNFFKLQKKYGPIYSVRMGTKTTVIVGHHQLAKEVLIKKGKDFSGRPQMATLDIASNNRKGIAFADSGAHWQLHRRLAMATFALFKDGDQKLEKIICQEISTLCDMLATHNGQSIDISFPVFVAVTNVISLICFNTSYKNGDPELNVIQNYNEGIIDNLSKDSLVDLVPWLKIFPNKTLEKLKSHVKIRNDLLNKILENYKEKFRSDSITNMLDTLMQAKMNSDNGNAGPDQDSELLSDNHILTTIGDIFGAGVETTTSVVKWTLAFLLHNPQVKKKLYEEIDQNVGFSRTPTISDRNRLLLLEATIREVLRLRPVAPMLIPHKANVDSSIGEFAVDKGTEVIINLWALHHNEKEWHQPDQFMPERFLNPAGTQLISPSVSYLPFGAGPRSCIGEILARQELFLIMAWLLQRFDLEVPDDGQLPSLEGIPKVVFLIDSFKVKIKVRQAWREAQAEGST
Test: CYP17 enzymatic assay (% inhibition at 10 nM), version 1 (Biological Example 5)
Type: biochemical
Conditions: 10 nM compound, DHEA by ELISA, read-out: Biological Example No. 5: CYP17 percent inhibition at 10 nM (version 1)

Solved entries:
| molecule | reported-measurement |
| --- | --- |
| C[C@]12CC[C@H]3[C@@H](CCC4CC(=O)NCC[C@@]43C)C1=CC=C2n1ccnn1 (stereo partly shown) [Compound 178] | 1 to 50% |
| CN1CC=C2CC[C@@H]3[C@H](CC[C@]4(C)C(c5cccnc5)=CC[C@@H]34)[C@@]2(C)CC1 [Compound 147] | 1 to 50% |
| Cc1cncc(C2=CC[C@H]3[C@@H]4CCC5=CC(=O)NCC[C@]5(C)[C@H]4CC[C@]23C)c1 [Compound 51] | 50 to 80% |
| Cc1cncc(C2=CC[C@H]3[C@@H]4CCN5C(=O)CCCC[C@]5(C)[C@H]4CC[C@]23C)c1 [Compound 39] | 50 to 80% |
| C[C@]12CC[C@H]3[C@@H](CCC4CNC(=O)CC[C@@]43C)C1=CC=C2n1ccnn1 (stereo partly shown) [Compound 179] | 1 to 50% |
| C[C@]12CCC(=O)NC[C@@H]1CC[C@@H]1[C@@H]2CC[C@]2(C)C(n3ccnn3)=CC[C@@H]12 [Compound 138] | 1 to 50% |
| Cc1cncc(C2=CC[C@H]3[C@@H]4CCC5=CC(=O)N(C)CC[C@]5(C)[C@H]4CC[C@]23C)c1 [Compound 54] | 50 to 80% |
| COc1cncc(C2=CC[C@H]3[C@@H]4CCN5C(=O)CCCC[C@]5(C)[C@H]4CC[C@]23C)c1 [Compound 40] | > 80% |

Exam item: Item CCCOc1cncc(C2=CC[C@H]3[C@@H]4CCN5CCCCC[C@]5(C)[C@H]4CC[C@]23C)c1 [Compound 46] has what recorded inhibition at 0.01 µM?
Marked response: 50 to 80%

Exam item: Try the molecule C[C@]12CC[C@H]3[C@@H](CC[C@H]4CC(=O)NCC[C@@]43C)C1=CC=C2c1cccnc1 [Compound 165]
Marked response: > 80%

Exam item: Another: C[C@]12CCNC(=O)C=C1CC[C@@H]1[C@@H]2CC[C@]2(C)C(n3ccnn3)=CC[C@@H]12 [Compound 59]
Marked response: > 80%

Exam item: How about CC(=O)N1CCC[C@@]2(C)[C@@H](CC[C@@H]3[C@@H]2CC[C@]2(C)C(n4ccnn4)=CC[C@@H]32)C1 [Compound 141] ?
Marked response: < 1%

Exam item: Could you do the same for C[C@]12CCCOC[C@H]1CC[C@@H]1[C@@H]2CC[C@]2(C)C(c3cccnc3)=CC[C@@H]12 [Compound 121] , please?
Marked response: > 80%

Exam item: Would you mind doing CN1CC[C@@]2(C)C(=CC1=O)CC[C@H]1C3=CC=C(c4cccnc4)[C@@]3(C)CC[C@@H]12 [Compound 158] as well?
Marked response: > 80%

Exam item: Could you do the same for C=Cc1cncc(C2=CC[C@H]3[C@@H]4CCN5C(=O)CCCC[C@]5(C)[C@H]4CC[C@]23C)c1 [Compound 43] , please?
Marked response: 50 to 80%

Exam item: Now this one: CCc1cncc(C2=CC[C@H]3[C@@H]4CCC5=CC(=O)N(C)CC[C@]5(C)[C@H]4CC[C@]23C)c1 [Compound 145]
Marked response: 50 to 80%

====

Molecular target: CYP17 (human testicular microsome) (Homo sapiens, UniProt P05093)
Construct: using microsomal fraction from human testis (Celsis Cat #S00110) as the enzyme source; tissue Celsis S00110; host or cells: human testis microsomal fraction
Sequence (P05093 1-508): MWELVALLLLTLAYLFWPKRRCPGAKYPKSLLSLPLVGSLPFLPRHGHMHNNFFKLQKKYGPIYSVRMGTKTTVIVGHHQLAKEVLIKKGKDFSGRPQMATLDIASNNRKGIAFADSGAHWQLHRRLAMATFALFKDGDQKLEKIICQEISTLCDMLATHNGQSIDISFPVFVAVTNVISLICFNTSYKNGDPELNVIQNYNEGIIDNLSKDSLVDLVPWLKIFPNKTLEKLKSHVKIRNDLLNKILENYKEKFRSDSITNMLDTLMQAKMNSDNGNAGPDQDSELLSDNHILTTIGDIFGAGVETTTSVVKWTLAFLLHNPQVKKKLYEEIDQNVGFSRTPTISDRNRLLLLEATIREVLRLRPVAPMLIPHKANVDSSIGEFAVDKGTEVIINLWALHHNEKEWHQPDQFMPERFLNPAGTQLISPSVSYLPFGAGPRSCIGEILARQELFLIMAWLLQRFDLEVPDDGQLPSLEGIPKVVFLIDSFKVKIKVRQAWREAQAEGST
Assay: CYP17 enzymatic assay (% inhibition at 10 nM), version 1 (Biological Example 5)
Assay type: biochemical
Details: 10 nM compound, DHEA by ELISA, read-out: Biological Example No. 5: CYP17 percent inhibition at 10 nM (version 1)
value-type: inhibition at 0.01 µM

| molecule | inhibition at 0.01 µM |
| --- | --- |
| CCc1cncc(C2=CC[C@H]3[C@@H]4CCN5C(=O)CCCC[C@]5(C)[C@H]4CC[C@]23C)c1 | > 80% |
| CC(=O)O[C@H]1CC[C@@]2(C)[C@@H](CC[C@H]3C4=CC=C(n5ccnc5)[C@@]4(C)CC[C@@H]32)C1 | > 80% |
| CN1C(=O)COC[C@@]2(C)C1CC[C@@H]1[C@@H]2CC[C@]2(C)C(c3cccnc3)=CC[C@@H]12 (stereo partly drawn) | 50 to 80% |
| C[C@]12CC(=O)C[C@@H]1CC[C@@H]1[C@@H]2CC[C@]2(C)C(n3ccnc3)=CC[C@@H]12 | > 80% |
| Cc1cncc(C2=CC[C@H]3[C@@H]4CC=C5CCCC[C@]5(C)[C@H]4CC[C@]23C)c1 | 50 to 80% |

Exam item: Suppose we examine the molecule `C[C@]12CCNC(=O)CC[C@@H]1CC[C@@H]1[C@@H]2CC[C@]2(C)C(c3cccnc3)=CC[C@@H]12` ; what inhibition at 0.01 µM value has been reported?
Marked response: 50 to 80%
